// data source = BindingDB's records for PubMed 36228194

Molecular target: NAD-dependent protein deacetylase sirtuin-3, mitochondrial (Homo sapiens)
Sequence (Q9NTG7 whole entry): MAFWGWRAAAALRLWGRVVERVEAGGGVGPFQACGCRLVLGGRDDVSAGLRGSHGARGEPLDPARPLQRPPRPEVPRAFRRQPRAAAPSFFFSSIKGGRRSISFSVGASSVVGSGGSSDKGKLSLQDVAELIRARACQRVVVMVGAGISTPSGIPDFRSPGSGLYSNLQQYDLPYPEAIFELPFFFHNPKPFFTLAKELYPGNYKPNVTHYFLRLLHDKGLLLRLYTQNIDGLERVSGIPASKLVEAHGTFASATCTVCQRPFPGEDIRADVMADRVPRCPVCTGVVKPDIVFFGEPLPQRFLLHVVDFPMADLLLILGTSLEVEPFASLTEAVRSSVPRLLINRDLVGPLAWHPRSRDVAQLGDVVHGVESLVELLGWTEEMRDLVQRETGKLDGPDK
Assay: Activation of N-terminal his-tagged human SIRT3 (114 to 380 residues) expressed in Escherichia coli in presence of NAD+ by Mass spectrometry assay
Result Type: EC50
Note to self: number, then unit, no commentary.

Q: Quick one: EC50 of `CCOC(=O)C1=CN(C(=O)c2cc(OC)c(OC)c(OC)c2)C=C(C(=O)OCC)C1c1ccccc1` ?
Result: 100 µM
